Cited source for all entries: patent US20220363763A1

target: T1, human PD-L1 (construct not stated) (human, UniProt Q9NZQ7 19-239, limits assumed); test: SPR Biacore, affinity ranking
T1 construct: also called B7-H1 (PD-L1); PD-L1 protein
T1 sequence (Q9NZQ7 19-239 limits assumed): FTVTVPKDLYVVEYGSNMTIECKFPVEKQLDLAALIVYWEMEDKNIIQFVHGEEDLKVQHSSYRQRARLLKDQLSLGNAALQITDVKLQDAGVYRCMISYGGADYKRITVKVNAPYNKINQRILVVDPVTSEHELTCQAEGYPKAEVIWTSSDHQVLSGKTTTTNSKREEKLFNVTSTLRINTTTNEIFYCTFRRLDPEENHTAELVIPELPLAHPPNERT

- binder: "B6 (antibody, V domains shown, also called B6 monoclonal antibody) VH: EVQLVESGGGLVQPGGSLRLSCAASGFTFSSYDMSWVRQAPGKSLEWVATISDAGGYIYYRDSVKGRFTISRDNAKNSLYLQMNSLRDEDTAVYICARELPWRYALDYWGQGTTVTVSS VL: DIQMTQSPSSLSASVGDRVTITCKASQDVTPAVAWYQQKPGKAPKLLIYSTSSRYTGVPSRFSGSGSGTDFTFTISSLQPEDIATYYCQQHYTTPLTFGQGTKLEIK"
  measure-unit: "s⁻¹"
  koff: 0.000246
- binder: "A3 (antibody, V domains shown) VH: EVQLVESGGGLVQPGGSLRLSCAASGFTFSSYDMSWVRQAPGKSLEWVATISDAGGYIYYRDSVKGRFTISRDNAKNSLYLQMNSLRDEDTAVYICAREFGKRYALDYWGQGTTVTVSS VL: DIQMTQSPSSLSASVGDRVTITCKASQDVTPAVAWYQQKPGKAPKLLIYSTSSRYTGVPSRFSGSGSGTDFTFTISSLQPEDIATYYCQQHSDAPLTFGQGTKLEIK"
  measure-unit: "s⁻¹"
  koff: 0.000324
- binder: "B1 (antibody, V domains shown) VH: EVQLVESGGGLVQPGGSLRLSCAASGFTFSSYDMSWVRQAPGKSLEWVATISDAGGYIYYRDSVKGRFTISRDNAKNSLYLQMNSLRDEDTAVYICAREIFNRYALDYWGQGTTVTVSS VL: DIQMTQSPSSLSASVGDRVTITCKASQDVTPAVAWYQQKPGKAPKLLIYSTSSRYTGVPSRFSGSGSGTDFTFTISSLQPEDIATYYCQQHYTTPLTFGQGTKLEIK"
  measure-unit: "s⁻¹"
  koff: 0.000261
